The measured values listed here are drawn from patent US20210009693A1.

- tested target: T1, wild type human PD-L1-Fc protein (SEQ ID NO: 107) (human)
- T1 construct: Extracellular human PD-L1 (amino acid 19-238) with Fc fragment of human IgG1, expressed in 293T cells and used as culture supernatant; also called WT PD-L1; wild-type PD-L1
- T1 sequence (chain, as listed by the source limits assumed): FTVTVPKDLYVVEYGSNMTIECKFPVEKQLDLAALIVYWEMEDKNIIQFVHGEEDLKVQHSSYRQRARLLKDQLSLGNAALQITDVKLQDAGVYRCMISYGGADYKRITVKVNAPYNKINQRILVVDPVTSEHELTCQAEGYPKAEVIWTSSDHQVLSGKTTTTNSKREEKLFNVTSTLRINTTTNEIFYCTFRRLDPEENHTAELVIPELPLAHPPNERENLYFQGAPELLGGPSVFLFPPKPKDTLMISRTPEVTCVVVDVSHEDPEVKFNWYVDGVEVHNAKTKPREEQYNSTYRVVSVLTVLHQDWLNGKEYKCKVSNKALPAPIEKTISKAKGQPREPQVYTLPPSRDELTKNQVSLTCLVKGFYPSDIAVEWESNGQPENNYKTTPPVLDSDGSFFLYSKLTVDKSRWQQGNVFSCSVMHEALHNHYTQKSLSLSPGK
- test summary: ELISA on captured PD-L1-Fc, as in Example 18A; further: test concentration or dose not given here
Listing of entries alongside the reported Mean OD450.
Output spec: scalar in OD450, unitless text.

binder | readout unit | result number
23F11-H4L4 (antibody, V domains shown, Human IgG1 constant region with N297A; biotinylated in the alanine-scan ELISA; also called 23F11-H4L4-bio; humanized 23F11) VH: QVQLVQSGAEVKKPGASVKLSCKASGYIFTTYWMHWVKQRPGQGLEWIGMIQPNSGGTKYNEKFKKKATLTVDKSISTAYMELSRLTSDDTAVYYCARGAGTVDYFDYWGQGSTLTVSS VL: DIVLTQSPASLAVSVGQRATITCRASESVDIYGNSFMHWYQQKPGQPPKLLIYRASNLESGIPARFSGSGSRTDFTLTINPVEANDTATYYCQQSTEDPYTFGGGTKLEIK | OD450 | 1.25

Now for another entry.
(Q) Fill blank: measured Mean OD450 of the binder 23F11 (antibody, V domains shown, also called mouse monoclonal antibody 23F11; clone 23F11) VH: QVQLQQPGAELVKPGASVKLSCKASGYSFTTYWMHWVKQRPGQGLEWIGMIQPNSGGTKYNEKFKKKATLTVDKSSTTASMELSSLTSEDSAVYYCARGAGTVDYFDYWGQGSTLTVSS VL: DIVLTHSPVSLAVSLGQRATISCRASESVDIYGNSFMHWYQQKPGQPPKLLIYRASNLESGIPARFSGSGSRTDFTLTINPVEADDVATYYCQQSTEDPYTFGGGTKLEIK is ____.
(A) 1.71
